- System: 186277-243-T-J2-PDC complex spheroid growth
- Protocol Details: Anticancer human tumor 186277-243-T-J2-PDC patient-derived colon adenocarcinoma cell line growth inhibition [AhR]
- Condition Info: curve of first compound; second compound 10 µM
Lab note - cut at 400 nM for IC50: t if strictly below, f if not.

Please review the entries below; each comes with its answer.
Nc1ncn(C2CC(O)C(CO)S2)c(=O)n1 (configuration not stated) + CC(CO)NC(=O)c1cc(-c2ccc(Cl)cc2)nn(-c2cnn(C)c2)c1=O: t
O=C(c1cc(Cc2n[nH]c(=O)c3ccccc23)ccc1F)N1CCN(C(=O)C2CC2)CC1 + Cc1cncc(-c2nc(NCCc3c[nH]c4ccccc34)c3ncn(C(C)C)c3n2)c1: t
CC1COCCN1c1cc(-c2ccnn2C)c2ccnc(-c3ccn[nH]3)c2n1 (configuration not stated) + Cc1ccccc1N=Nc1ccc(NC(=O)c2ccnn2C)c(C)c1: t

**Query** In the record for O=C(C=Cn1cnc(-c2cc(C(F)(F)F)cc(C(F)(F)F)c2)n1)NNc1cnccn1 + CC(CO)NC(=O)c1cc(-c2ccc(Cl)cc2)nn(-c2cnn(C)c2)c1=O , is IC50 less than 400 nM?
**Result** t

**Query** In the record for CCN(c1cc(-c2ccc(CN3CCOCC3)cc2)cc(C(=O)NCc2c(C)cc(C)[nH]c2=O)c1C)C1CCOCC1 + Cc1cncc(-c2nc(NCCc3c[nH]c4ccccc34)c3ncn(C(C)C)c3n2)c1 , is IC50 less than 400 nM?
**Result** f

**Query** In the record for COc1cccc2c1C(=O)c1c(O)c3c(c(O)c1C2=O)CC(O)(C(=O)CO)CC3OC1CC(N)C(O)C(C)O1 (configuration not stated) + Cc1ccccc1N=Nc1ccc(NC(=O)c2ccnn2C)c(C)c1 , is IC50 less than 400 nM?
**Result** f

**Query** In the record for CC1COCCN1c1cc(C2(S(C)(=N)=O)CC2)nc(-c2ccnc3[nH]ccc23)n1 (configuration not stated) + Cc1cncc(-c2nc(NCCc3c[nH]c4ccccc34)c3ncn(C(C)C)c3n2)c1 , is IC50 less than 400 nM?
**Result** f

**Query** In the record for CCc1c2c(nc3ccc(O)cc13)-c1cc3c(c(=O)n1C2)COC(=O)[C@]3(O)CC + Cc1cncc(-c2nc(NCCc3c[nH]c4ccccc34)c3ncn(C(C)C)c3n2)c1 , is IC50 less than 400 nM?
**Result** t

**Query** In the record for CC[C@@]1(O)C(=O)OCc2c1cc1n(c2=O)Cc2cc3c(CN(C)C)c(O)ccc3nc2-1 + CC(CO)NC(=O)c1cc(-c2ccc(Cl)cc2)nn(-c2cnn(C)c2)c1=O , is IC50 less than 400 nM?
**Result** t

**Query** In the record for CC(C)c1c(-c2ccccc2)nc2c(C#N)c[nH]n2c1=O + CC(CO)NC(=O)c1cc(-c2ccc(Cl)cc2)nn(-c2cnn(C)c2)c1=O , is IC50 less than 400 nM?
**Result** f

----------
- Test system: 186277-243-T-J2-PDC complex spheroid growth
- Protocol Details: Anticancer human tumor 186277-243-T-J2-PDC cell line growth inhibition [AhR];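 further: spheroids exposed to compounds for seven days before the viability read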
- Condition Info: curve of first compound; second compound 0.1 µM
- Description: Multicellular complex tumor spheroid response to aryl hydrocarbon receptor antagonists in combination with a variety of drugs and investigational agents in selected tumor cell lines […] Compounds. […] If the clinical Cmax for an agent had not been determined, the highest concentration tested was 10 microM (Table 1). […]
pIC50: −log10 of the molar value.
Value Kind: pIC50

Recorded pIC50, per entry:
CC(C)c1c(-c2ccccc2)nc2c(C#N)c[nH]n2c1=O + Cc1ccccc1N=Nc1ccc(NC(=O)c2ccnn2C)c(C)c1: < 5.00
CC[C@@]1(O)C(=O)OCc2c1cc1n(c2=O)Cc2cc3c(CN(C)C)c(O)ccc3nc2-1 + Cc1ccccc1N=Nc1ccc(NC(=O)c2ccnn2C)c(C)c1: < 7.00

Could you now consider this next compound?
**Query** Note pIC50 for the compound shown: CCc1c2c(nc3ccc(O)cc13)-c1cc3c(c(=O)n1C2)COC(=O)[C@]3(O)CC + CC(CO)NC(=O)c1cc(-c2ccc(Cl)cc2)nn(-c2cnn(C)c2)c1=O
**Result** > 9.02
